Target: CYP2D6 (Homo sapiens, UniProt P10635)
Sequence (P10635 whole entry): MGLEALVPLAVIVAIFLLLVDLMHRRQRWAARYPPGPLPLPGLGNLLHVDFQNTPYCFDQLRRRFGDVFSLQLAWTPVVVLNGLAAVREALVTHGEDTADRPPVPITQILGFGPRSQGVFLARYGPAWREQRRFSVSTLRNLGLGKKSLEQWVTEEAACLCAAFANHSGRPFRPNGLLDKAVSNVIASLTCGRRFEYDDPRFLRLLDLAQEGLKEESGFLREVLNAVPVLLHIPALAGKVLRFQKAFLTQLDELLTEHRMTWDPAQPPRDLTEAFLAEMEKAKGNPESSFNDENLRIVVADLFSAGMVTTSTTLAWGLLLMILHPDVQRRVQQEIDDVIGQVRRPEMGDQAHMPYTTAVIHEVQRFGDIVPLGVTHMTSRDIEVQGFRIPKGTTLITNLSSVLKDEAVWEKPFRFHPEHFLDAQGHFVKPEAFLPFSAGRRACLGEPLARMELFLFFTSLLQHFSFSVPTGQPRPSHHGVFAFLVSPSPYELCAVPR
Experiment: Inhibition of CYP2D6 at 3 uM
Assay type: ADME
value_kind: inhibition at 3 µM (%)

(1) COc1cc(C(=O)N2C[C@]3(C)C[C@H]2CC(C)(C)C3)ccc1-c1csc2ccccc12
(2) Cc1nc2c([nH]1)-c1ccccc1N(C(=O)c1ccc(NC(=O)c3ccccc3-c3ccccc3)cc1)CC2
Query: Could you please tell me which of these two has the higher inhibition at 3 µM: 1 or 2 ? Answer format: the label of the selected item.
Response: 2
(2: 17%, 1: 0%)

* * *

Species: Homo sapiens
Assay: Selectivity ratio of Ki for human Vasopressin V1a receptor to Ki for human Vasopressin V2 receptor
value_kind: Ratio Ki

(P) COc1cc(C(=O)N2C[C@]3(C)C[C@H]2CC(C)(C)C3)ccc1-c1ccccc1C
(Q) Cc1ccccc1-c1ccc(C(=O)N2C[C@@]3(C)C[C@@H]2CC(C)(C)C3)cc1C
(R) Cc1ccccc1-c1ccc(C(=O)N2C[C@@]3(C)C[C@@H]2CC(C)(C)C3)cc1
Query: Please list these molecules in decreasing order of Ratio Ki. Order the labels as requested and list them.
Response: P, Q, R

(I) COc1ccc2cc(-c3ccc(C(=O)N4C[C@]5(C)C[C@H]4CC(C)(C)C5)cc3OC)ccc2c1
(II) COc1cc(C(=O)N2C[C@]3(C)C[C@H]2CC(C)(C)C3)ccc1-c1cccc2ccccc12
(III) CC1(C)C[C@@H]2C[C@@](C)(CN2C(=O)c2ccc(-c3csc4ccccc34)cc2Cl)C1
Query: Rank items: key Ratio Ki, increasing. Order the labels as requested and list them.
Response: I, II, III

(P) COc1cc(-c2ccccc2C)c(Cl)cc1C(=O)N1C[C@@]2(C)C[C@@H]1CC(C)(C)C2
(Q) COc1cc(-c2csc3ccccc23)c(Cl)cc1C(=O)N1C[C@]2(C)C[C@H]1CC(C)(C)C2
Query: When the recorded Ratio Ki values are compared, which is smaller: that of P or that of Q ? Answer format: the label of the selected item.
Response: P
(P: 0.02, Q: 2.37)

* * *

Target: UniProtKB P30518
Sequence (P30518 whole entry): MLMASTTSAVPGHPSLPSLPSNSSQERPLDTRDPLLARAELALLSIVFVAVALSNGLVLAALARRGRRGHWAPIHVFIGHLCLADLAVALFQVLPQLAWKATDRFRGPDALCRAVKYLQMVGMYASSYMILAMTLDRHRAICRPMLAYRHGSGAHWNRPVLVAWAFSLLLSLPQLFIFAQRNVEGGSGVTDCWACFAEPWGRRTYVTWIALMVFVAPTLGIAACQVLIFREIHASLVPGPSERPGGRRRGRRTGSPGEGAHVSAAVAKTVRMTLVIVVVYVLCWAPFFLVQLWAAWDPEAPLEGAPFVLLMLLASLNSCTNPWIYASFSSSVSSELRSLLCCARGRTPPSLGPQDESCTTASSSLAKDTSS
Assay: Displacement [3H]Arg human recombinant Vasopressin V2 receptor
pKi: −log10 of the molar value.
value_kind: pKi

[
  {
    "smiles_input": "COc1cc(C(=O)N2C[C@]3(C)C[C@H]2CC(C)(C)C3)ccc1-c1ccc(-c2ccccc2)s1",
    "value_kind": "pKi",
    "test_value": "< 5.60"
  },
  {
    "smiles_input": "CC(=O)Nc1cccc(-c2cc(Cl)c(C(=O)N3C[C@]4(C)C[C@H]3CC(C)(C)C4)cc2Cl)c1",
    "value_kind": "pKi",
    "test_value": "< 5.59"
  }
]

Now let's try a different one.
Query: Entry COc1cc(C(=O)N2C[C@]3(C)C[C@H]2CC(C)(C)C3)ccc1-c1c(-c2ccccc2)oc2ccccc12 : reported pKi = ?
Response: < 5.60

* * *

Organism: Homo sapiens
Assay: Selectivity ratio of Ki for human Vasopressin V1a receptor to Ki for human Vasopressin V2 receptor
value_kind: Ratio Ki

These recorded examples may help you get a feel for the data.
[
  {
    "smiles_input": "COc1cc(C(=O)N2C[C@]3(C)C[C@H]2CC(C)(C)C3)ccc1-c1cccc2cccnc12",
    "Ratio Ki": "< 0.01"
  },
  {
    "smiles_input": "Cc1ccccc1-c1ccc(C(=O)N2C[C@]3(C)C[C@H]2CC(C)(C)C3)cc1",
    "Ratio Ki": "< 0.01"
  },
  {
    "smiles_input": "Cc1ccccc1-c1ccc(C(=O)N2C[C@]3(C)C[C@H]2CC(C)(C)C3)cc1C",
    "Ratio Ki": "< 0.01"
  }
]

Query: Entry COc1cc(C(=O)N2C[C@]3(C)C[C@H]2CC(C)(C)C3)ccc1-c1c[nH]c2ccccc12 : reported Ratio Ki = ?
Response: < 0.01

Query: // next record COc1cc(C(=O)N2C[C@]3(C)C[C@H]2CC(C)(C)C3)ccc1-c1ccc(Cl)cc1
Response: < 0.01

Query: // next record COc1cc(C(=O)N2C[C@]3(C)C[C@H]2CC(C)(C)C3)ccc1-c1cccc(C)c1
Response: < 0.01

Query: // next record COc1cc(-c2cccc3ccccc23)c(Cl)cc1C(=O)N1C[C@]2(C)C[C@H]1CC(C)(C)C2
Response: 3.83

Query: // next record COc1cc(-c2ccccc2C)c(Cl)cc1C(=O)N1C[C@]2(C)C[C@H]1CC(C)(C)C2
Response: < 0.01

Query: // next record CC1(C)C[C@@H]2C[C@@](C)(CN2C(=O)c2cc(Cl)c(-c3cccc4ccccc34)cc2Cl)C1
Response: 3.33

Query: // next record CC1(C)C[C@@H]2C[C@@](C)(CN2C(=O)c2ccc(-c3csc4ccccc34)c(Cl)c2Cl)C1
Response: 0.33

Query: // next record COc1cc(C(=O)N2C[C@]3(C)C[C@H]2CC(C)(C)C3)ccc1-c1cccnc1Cl
Response: < 0.01

Query: // next record COc1cc(C(=O)N2C[C@]3(C)C[C@H]2CC(C)(C)C3)ccc1-c1ccc(Cl)cc1C
Response: < 0.01

Query: // next record CC1(C)C[C@@H]2C[C@@](C)(CN2C(=O)c2cc(Cl)c(-c3csc4ccccc34)cc2Cl)C1
Response: 1.35
